test system: angiotensin II receptor; assay: Angiotensin II receptor binding assay ([3H] angiotensin II displacement); details: 60 minutes at 25° C., pH 7.2, test concentration not given
Mark satisfied only when Binding Inhibition (%) stays strictly below 90%. Values equal to the cut-off are not satisfied.

1) CCCCc1nc(Cl)c(C(=O)c2ccc(CN(CC)CC)c[n+]2[O-])n1Cc1ccc(-c2ccccc2-c2nn[nH]n2)cc1 :: not satisfied
2) CCCCc1nc(Cl)c(C(=O)c2ccc(C=O)cn2)n1Cc1ccc(-c2ccccc2-c2nn[nH]n2)cc1 :: satisfied
3) CCCCc1nc(Cl)c(C(O)c2cccc(C(OC)OC)n2)n1Cc1ccc(-c2ccccc2-c2nnn[nH]2)cc1 (stereo not shown) :: satisfied
4) CCCCc1nc(Cl)c(C(O)c2ccc(CO)c[n+]2[O-])n1Cc1ccc(-c2ccccc2-c2nn[nH]n2)cc1 (stereo not shown) :: satisfied
5) CCCCc1nc(Cl)c(C(=O)c2cccc(CO)n2)n1Cc1ccc(-c2ccccc2-c2nnn[nH]2)cc1 :: satisfied
6) CCCCc1nc(Cl)c(C(O)c2ccc(CN(CC)CC)cn2)n1Cc1ccc(-c2ccccc2-c2nnn[nH]2)cc1 (stereo not shown) :: satisfied
7) CCCCc1nc(Cl)c(C(=O)c2ccc(C[N+]([O-])(CC)CC)cn2)n1Cc1ccc(-c2ccccc2-c2nn[nH]n2)cc1 :: not satisfied

----------
Entries and their Binding Inhibition (%)
system: angiotensin II receptor; assay: Angiotensin II receptor binding assay ([3H] angiotensin II displacement); details: 60 minutes at 25° C., pH 7.2, test concentration not given
Measurement Kind: Binding Inhibition (%)

1. CCCCc1nc(Cl)c(C(=O)c2cccc(C(=O)OC)[n+]2[O-])n1Cc1ccc(-c2ccccc2-c2nn[nH]n2)cc1 [Compound 21] :: 86.5
2. CCCCc1nc(Cl)c(C(=O)c2ccc(CCl)cn2)n1Cc1ccc(-c2ccccc2-c2nnn[nH]2)cc1 [Compound 29] :: 83.6
3. CCCCc1nc(Cl)c(C(=O)c2cccc(C(=O)N(CC)CC)[n+]2[O-])n1Cc1ccc(-c2ccccc2-c2nn[nH]n2)cc1 [Compound 37] :: 92.8
4. CCCCc1nc(Cl)c(C(=O)c2cccc(C=NO)[n+]2[O-])n1Cc1ccc(-c2ccccc2-c2nn[nH]n2)cc1 [Compound 38] :: 95.4
5. CCCCc1nc(Cl)c(C(=O)c2cccc(C(C)=O)[n+]2[O-])n1Cc1ccc(-c2ccccc2-c2nn[nH]n2)cc1 [Compound 20] :: 89.0
6. CCCCc1nc(Cl)c(C(O)c2cccc(CN(CC)CC)n2)n1Cc1ccc(-c2ccccc2-c2nnn[nH]2)cc1 (stereo not shown) [Compound 12] :: 63.2
7. CCCCc1nc(Cl)c(C(O)c2ccc(C(OC)OC)cn2)n1Cc1ccc(-c2ccccc2-c2nnn[nH]2)cc1 (stereo not shown) [Compound 25] :: 87.8

----------
system: angiotensin II receptor; experiment: Angiotensin II receptor binding assay ([3H] angiotensin II displacement); conditions: 60 minutes at 25° C., pH 7.2, test concentration not given
List of Binding Inhibition (%) values.
Measurement Kind: Binding Inhibition (%)

1. CCCCc1nc(Cl)c(C(O)c2cccc(C=O)n2)n1Cc1ccc(-c2ccccc2-c2nnn[nH]2)cc1 (centres unmarked) :: 64.9%
2. CCCCc1nc(Cl)c(C(O)c2cccc(C(=O)N(CC)CC)[n+]2[O-])n1Cc1ccc(-c2ccccc2-c2nn[nH]n2)cc1 (centres unmarked) :: 75.4%
3. CCCCc1nc(Cl)c(C(=O)c2ccc(C[N+]([O-])(CC)CC)c[n+]2[O-])n1Cc1ccc(-c2ccccc2-c2nn[nH]n2)cc1 :: 98.8%
4. CCCCc1nc(Cl)c(C(O)c2cccc(Br)[n+]2[O-])n1Cc1ccc(-c2ccccc2-c2nn[nH]n2)cc1 (centres unmarked) :: 62.9%
5. CCCCc1nc(Cl)c(C(=O)c2cccc(C[N+]([O-])(CC)CC)[n+]2[O-])n1Cc1ccc(-c2ccccc2-c2nn[nH]n2)cc1 :: 99.9%
6. CCCCc1nc(Cl)c(C(=O)c2cccc(C(OC)OC)n2)n1Cc1ccc(-c2ccccc2-c2nnn[nH]2)cc1 :: 91.2%
7. CCCCc1nc(Cl)c(C(=O)c2cccc(Br)n2)n1Cc1ccc(-c2ccccc2-c2nnn[nH]2)cc1 :: 50.3%
8. CCCCc1nc(Cl)c(C(=O)c2ccc(C=O)c[n+]2[O-])n1Cc1ccc(-c2ccccc2-c2nn[nH]n2)cc1 :: 93.4%
9. CCCCc1nc(Cl)c(C(=O)c2cccc(C=O)[n+]2[O-])n1Cc1ccc(-c2ccccc2-c2nn[nH]n2)cc1 :: 95.0%
10. CCCCc1nc(Cl)c(C(=O)c2cccc(C=O)n2)n1Cc1ccc(-c2ccccc2-c2nnn[nH]2)cc1 :: 79.8%
11. CCCCc1nc(Cl)c(C(=O)c2ccc(CO)cn2)n1Cc1ccc(-c2ccccc2-c2nn[nH]n2)cc1 :: 78.9%
12. CCCCc1nc(Cl)c(C(O)c2cccc(CN(CC)CC)[n+]2[O-])n1Cc1ccc(-c2ccccc2-c2nn[nH]n2)cc1 (centres unmarked) :: 30.5%
13. CCCCc1nc(Cl)c(C(O)c2cccc(Br)n2)n1Cc1ccc(-c2ccccc2-c2nnn[nH]2)cc1 (centres unmarked) :: 57.1%
14. CCCCc1nc(Cl)c(C(=O)c2ccc(CN(CC)CC)cn2)n1Cc1ccc(-c2ccccc2-c2nnn[nH]2)cc1 :: 95.6%

----------
Below, each entry is listed with its recorded Binding Inhibition (%).
system: angiotensin II receptor; assay: Angiotensin II receptor binding assay ([3H] angiotensin II displacement); settings: 60 minutes at 25° C., pH 7.2, test concentration not given
Measurement Kind: Binding Inhibition (%)

1. CCCCc1nc(Cl)c(CO)n1Cc1ccc(-c2ccccc2-c2nn[nH]n2)cc1 [Dup 753, Losartan, reference compound] :: 48.0
2. CCCCc1nc(Cl)c(C(=O)c2cccc(CN(CC)CC)n2)n1Cc1ccc(-c2ccccc2-c2nnn[nH]2)cc1 [Compound 13] :: 90.5
3. CCCCc1nc(Cl)c(C(=O)c2cccc(CN(CC)CC)[n+]2[O-])n1Cc1ccc(-c2ccccc2-c2nn[nH]n2)cc1 [Compound 10] :: 91.1
4. CCCCc1nc(Cl)c(C(=O)c2cccc(CO)[n+]2[O-])n1Cc1ccc(-c2ccccc2-c2nn[nH]n2)cc1 [Compound 3] :: 96.3
5. CCCCc1nc(Cl)c(C(=O)c2cccc(Br)[n+]2[O-])n1Cc1ccc(-c2ccccc2-c2nn[nH]n2)cc1 [Compound 15] :: 88.6
6. CCCCc1nc(Cl)c(C(=O)c2cccc(C(OC)OC)[n+]2[O-])n1Cc1ccc(-c2ccccc2-c2nn[nH]n2)cc1 [Compound 1] :: 91.1
7. CCCCc1nc(Cl)c(C(=O)c2ccc(C(OC)OC)cn2)n1Cc1ccc(-c2ccccc2-c2nnn[nH]2)cc1 [Compound 26] :: 94.0

----------
In this section, each of the molecules is paired with its reported Binding Inhibition (%).
system: angiotensin II receptor; assay: Angiotensin II receptor binding assay ([3H] angiotensin II displacement); settings: 60 minutes at 25° C., pH 7.2, test concentration not given
Measurement Kind: Binding Inhibition (%)

1. CCCCc1nc(Cl)c(C(=O)c2cccc(C(C)O)[n+]2[O-])n1Cc1ccc(-c2ccccc2-c2nn[nH]n2)cc1 (stereo not drawn) [Compound 19] :: 88.7
2. CCCCc1nc(Cl)c(C(=O)c2cccc(C[N+]([O-])(CC)CC)n2)n1Cc1ccc(-c2ccccc2-c2nn[nH]n2)cc1 [Compound 14] :: 92.1
3. CCCCc1nc(Cl)c(C(=O)c2ccc(C(OC)OC)c[n+]2[O-])n1Cc1ccc(-c2ccccc2-c2nn[nH]n2)cc1 [Compound 22] :: 90.1
4. CCCCc1nc(Cl)c(C(O)c2ccc(CO)cn2)n1Cc1ccc(-c2ccccc2-c2nnn[nH]2)cc1 (stereo not drawn) [Compound 30] :: 90.2
5. CCCCc1nc(Cl)c(C(=O)c2ccc(C=O)c(C)[n+]2[O-])n1Cc1ccc(-c2ccccc2-c2nn[nH]n2)cc1 [Compound 40] :: 90.4
6. CCCCc1nc(Cl)c(C(=O)c2ccc(C(OC)OC)c(C)[n+]2[O-])n1Cc1ccc(-c2ccccc2-c2nn[nH]n2)cc1 [Compound 39] :: 87.5

Source: patent US5665738A
